Every entry's value here was drawn from the supplement of paper PMC10126150.

Tested on: ATP;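 also: ATP exposure 15 min at 22 °C before imaging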
Protocol notes: switch fluorescence ratio, 500 uM ATP over buffer (Cy3 cluster intensity, sum of 5 cycles each) (fold (ratio)); higher = stronger signal-on switching upon ATP binding; sequences stand for … in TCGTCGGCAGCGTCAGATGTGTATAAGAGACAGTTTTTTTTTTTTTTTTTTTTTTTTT…TC
Measurement conditions: aptamer strand: ATP DNA aptamer (quencher-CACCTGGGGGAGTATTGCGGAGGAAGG + anchor), 100 nM annealed; ATP concentration: 500 uM
Hi, to clarify the labels: 1 covers switch fluorescence ratio from 1 upward, -1 covers anything below 1.

Solved entries:
## Task Has CGAATCCCCA a recorded switch fluorescence ratio greater than or equal to 1?
## Result 1

## Task Has ACGTCCCGGG a recorded switch fluorescence ratio greater than or equal to 1?
## Result 1

## Task Has GGGATGTGCG a recorded switch fluorescence ratio greater than or equal to 1?
## Result 1

## Task Has GGTTAGGGAC a recorded switch fluorescence ratio greater than or equal to 1?
## Result 1

## Task Has GAGATGAGGA a recorded switch fluorescence ratio greater than or equal to 1?
## Result -1

Attention now shifts to the item below.
## Task Has CGTTCCGGTC a recorded switch fluorescence ratio greater than or equal to 1?
## Result 1
